Source: patent US20120232070A1

molecular target: hNurr1_RXRαFL (NURR1/RXRα heterodimer) (Homo sapiens, UniProt P19793+P43354); test: Transactivation assay in Cos-7 cells, NURR-1-Gal4 / RXRα, luciferase reporter; format: cell-based; conditions: COS-7, read-out: hNurr1_RXRαFL Eff (%), efficacy in % relative to the reference XCT0135908 at 2·10^−5 M (=100%)
Sequence (P19793 whole entry, the tested form may be a part): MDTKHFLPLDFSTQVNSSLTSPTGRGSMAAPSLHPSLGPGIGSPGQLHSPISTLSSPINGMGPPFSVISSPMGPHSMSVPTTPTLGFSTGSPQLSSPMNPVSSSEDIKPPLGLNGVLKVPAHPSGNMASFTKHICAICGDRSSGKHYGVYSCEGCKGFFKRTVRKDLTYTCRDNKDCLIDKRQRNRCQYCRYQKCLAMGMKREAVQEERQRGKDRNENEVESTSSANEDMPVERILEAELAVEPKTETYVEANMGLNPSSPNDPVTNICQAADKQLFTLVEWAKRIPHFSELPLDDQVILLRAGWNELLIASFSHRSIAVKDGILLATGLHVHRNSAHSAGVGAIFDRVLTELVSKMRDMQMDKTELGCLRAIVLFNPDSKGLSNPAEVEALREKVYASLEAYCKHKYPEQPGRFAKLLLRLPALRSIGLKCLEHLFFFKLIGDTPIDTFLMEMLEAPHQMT
Sequence (P43354 328-598): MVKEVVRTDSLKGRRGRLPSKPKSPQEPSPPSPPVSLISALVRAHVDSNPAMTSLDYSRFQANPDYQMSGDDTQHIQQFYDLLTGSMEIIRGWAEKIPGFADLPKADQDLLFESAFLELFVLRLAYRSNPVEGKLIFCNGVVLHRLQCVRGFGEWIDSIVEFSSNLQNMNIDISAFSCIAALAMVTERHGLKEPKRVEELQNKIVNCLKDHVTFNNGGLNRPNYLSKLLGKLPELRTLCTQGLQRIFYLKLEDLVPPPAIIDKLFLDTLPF
Returns one of satisfied or not satisfied; satisfied when Emax is >= 40%.

Query: Could you tell me if the measured Emax of `CCCc1ccc(S(=O)(=O)n2c(Cc3ccc(C(=O)O)cc3)cc3cc(Cl)ccc32)cc1` reaches 40% or more?
Response: satisfied

Query: Could you tell me if the measured Emax of `CC(C)(C)c1cccc(S(=O)(=O)n2c(Cc3cc(C(=O)O)ccc3F)cc3cc(C(F)(F)F)ccc32)c1` reaches 40% or more?
Response: satisfied

Query: Could you tell me if the measured Emax of `CC(C)(C)c1cccc(S(=O)(=O)n2c(Cc3ccc(C(=O)O)cc3)cc3c(Cl)c(Cl)ccc32)c1` reaches 40% or more?
Response: satisfied

Query: Could you tell me if the measured Emax of `O=C(O)c1ccc(Cc2cc3cc(Cl)ccc3n2S(=O)(=O)c2ccc(Cl)cc2)cc1` reaches 40% or more?
Response: satisfied

Query: Could you tell me if the measured Emax of `O=C(O)c1ccc(Cc2cc3cc(C(F)(F)F)ccc3n2S(=O)(=O)c2ccc(N3CCOCC3)nc2)cc1` reaches 40% or more?
Response: not satisfied

Query: Could you tell me if the measured Emax of `O=C(O)c1ccc(Cc2cc3cc(Cl)ccc3n2S(=O)(=O)c2ccc3c(c2)OCCCO3)cc1` reaches 40% or more?
Response: satisfied
